// data source = a collection of fitness landscapes (doi:10.1126/science.1257360)

B1: PhoQ; a variant is named by its letters at X, in order, P23837 (parent)
chain: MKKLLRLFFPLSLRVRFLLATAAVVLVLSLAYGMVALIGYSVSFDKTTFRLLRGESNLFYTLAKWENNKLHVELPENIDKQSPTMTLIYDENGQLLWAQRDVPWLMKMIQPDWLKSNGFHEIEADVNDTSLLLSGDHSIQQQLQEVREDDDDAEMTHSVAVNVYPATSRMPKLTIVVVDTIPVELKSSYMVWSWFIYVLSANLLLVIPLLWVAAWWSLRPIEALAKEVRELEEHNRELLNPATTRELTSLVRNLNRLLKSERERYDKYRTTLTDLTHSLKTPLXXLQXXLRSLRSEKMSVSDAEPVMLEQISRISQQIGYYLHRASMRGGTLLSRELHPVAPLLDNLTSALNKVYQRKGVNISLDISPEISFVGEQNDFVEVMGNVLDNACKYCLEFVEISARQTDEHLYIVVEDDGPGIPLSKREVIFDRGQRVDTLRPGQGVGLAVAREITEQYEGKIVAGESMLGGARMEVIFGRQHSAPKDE

Variants of: B1
protocol-text: enrichment ratio after two sorts for PhoP signalling (ratio (wild type AVST 3.29)); higher = more functional
run-parameters: with PhoP (E. coli)
In all, about 140,000 sequences were measured (“enrichment ratio after two sorts for PhoP signalling”: median about 0, highest 2% from about 11 on). This is one part of a sample in which the highest values are shown more often than they occur.
measured-attribute: enrichment ratio

// known answers, use as guide
CITF :: ≤ 0.25
TMSA :: 15.1
TMMW :: ≤ 0.25
YLTE :: ≤ 0.25
THRA :: ≤ 0.25
HEGR :: ≤ 0.25

Next item in the queue.
So for `TMGK` , the logged enrichment ratio turned out to be ≤ 0.25
